Please provide measured GI50 for the entries that follow.
Biological target: EGFR mutant L858R Ba/F3 cells (Homo sapiens, UniProt P00533, L858R, cells depend on it)
Sequence (P00533 whole entry L858R): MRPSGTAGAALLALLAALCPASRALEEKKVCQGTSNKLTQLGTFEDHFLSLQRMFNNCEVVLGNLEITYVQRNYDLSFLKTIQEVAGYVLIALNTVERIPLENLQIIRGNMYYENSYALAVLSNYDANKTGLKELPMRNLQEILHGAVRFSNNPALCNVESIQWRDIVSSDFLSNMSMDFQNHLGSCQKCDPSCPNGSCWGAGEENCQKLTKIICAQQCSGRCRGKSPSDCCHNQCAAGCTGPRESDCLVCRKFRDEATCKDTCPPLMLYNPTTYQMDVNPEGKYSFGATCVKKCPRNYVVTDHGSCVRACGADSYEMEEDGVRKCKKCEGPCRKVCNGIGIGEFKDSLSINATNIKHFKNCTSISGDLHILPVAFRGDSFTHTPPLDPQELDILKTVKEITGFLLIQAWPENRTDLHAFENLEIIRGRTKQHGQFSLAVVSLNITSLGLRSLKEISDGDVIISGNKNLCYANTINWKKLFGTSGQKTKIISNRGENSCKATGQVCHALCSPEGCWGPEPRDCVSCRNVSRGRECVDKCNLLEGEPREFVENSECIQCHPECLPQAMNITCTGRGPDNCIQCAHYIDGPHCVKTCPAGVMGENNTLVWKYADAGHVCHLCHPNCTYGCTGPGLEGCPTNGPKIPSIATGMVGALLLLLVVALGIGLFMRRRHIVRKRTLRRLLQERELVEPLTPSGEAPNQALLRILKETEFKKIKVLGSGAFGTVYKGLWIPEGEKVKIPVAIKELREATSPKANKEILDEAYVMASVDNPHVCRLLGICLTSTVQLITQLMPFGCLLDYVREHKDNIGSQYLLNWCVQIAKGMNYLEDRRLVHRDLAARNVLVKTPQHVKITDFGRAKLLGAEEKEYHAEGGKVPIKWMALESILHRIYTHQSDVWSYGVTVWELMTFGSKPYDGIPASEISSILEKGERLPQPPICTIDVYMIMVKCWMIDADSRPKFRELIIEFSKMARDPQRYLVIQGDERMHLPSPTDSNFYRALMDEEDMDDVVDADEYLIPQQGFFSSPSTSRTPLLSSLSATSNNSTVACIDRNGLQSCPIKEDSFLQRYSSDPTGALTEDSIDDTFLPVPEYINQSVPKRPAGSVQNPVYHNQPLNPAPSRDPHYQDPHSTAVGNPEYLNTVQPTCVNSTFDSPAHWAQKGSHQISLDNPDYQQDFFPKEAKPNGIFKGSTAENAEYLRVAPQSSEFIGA
Assay: Ba/F3 cell proliferation (Cell Titer Glo), EGFR L858R
Format: cell-based, murine
Conditions: 72 hours, Table 6, read-out: L858R BaF3

Entry C=CC(=O)N1CCC(N2Cc3cnc(Nc4ccc(N5CCN(C)CC5)cc4Cl)nc3N(C)C2=O)c2ccccc21 (stereo not drawn) [Compound 077] — recorded GI50 = < 100 nM

Entry [2H]C1(N2Cc3cnc(Nc4ccc(N5CCN(C)CC5)cc4)nc3N(C)C2=O)CCN(C(=O)C=C)c2c(OC)cccc21 (stereo not drawn) [Compound 130] — recorded GI50 = < 100 nM

Entry C=CC(=O)N1CCC(N2Cc3cnc(Nc4ccc(N5CCN(C)CC5)cc4)nc3N(C)C2=O)c2cccc(O)c21 (stereo not drawn) [Compound 133] — recorded GI50 = < 100 nM

Entry C=CC(=O)Nc1cccc(N2C(=O)N(C3CCN(C(=O)C=C)c4ccccc43)Cc3cnc(Nc4ccc(N5CCN(C)CC5)cc4)nc32)c1 (stereo not drawn) [Compound 158] — recorded GI50 = < 100 nM

Entry C=C(F)C(=O)N1CC[C@H](N2Cc3cnc(Nc4cnn(CCO)c4)nc3N(c3ccccn3)C2=O)c2ccccc21 [Compound 111] — recorded GI50 = 100 to 500 nM

Entry C=CC(=O)N1CCC(N2Cc3cnc(Nc4ccc(N5CCN(C)CC5)cc4)nc3N(C)C2=O)c2cccc(O)c21 (single isomer, unassigned) [Compound 156] — recorded GI50 = < 100 nM

Entry C=CC(=O)N1CCC(C)(N2Cc3cnc(Nc4cnn(CCO)c4)nc3N(C)C2=O)CC1 [Compound 125] — recorded GI50 = ≥ 2500 nM

Entry C=CC(=O)N1C[C@@H](N2Cc3cnc(Nc4ccc(N5CCN(C)CC5)cc4)nc3N(C)C2=O)C[C@@H]1C(=O)O [Compound 138] — recorded GI50 = ≥ 2500 nM

Entry C=CC(=O)N1CCC(N2Cc3cnc(Nc4ccc(CN5CCN(C)CC5)c(Cl)c4)nc3N(C)C2=O)c2ccccc21 (stereo not drawn) [Compound 088] — recorded GI50 = < 100 nM

Entry C=CC(=O)N1CCC(N2Cc3cnc(Nc4ccc(C5=CCN(C)CC5)cc4)nc3N(C)C2=O)c2ccccc21 (stereo not drawn) [Compound 067] — recorded GI50 = < 100 nM

Entry C=CC(=O)N1CC[C@H](N2Cc3cnc(Nc4ccc(N5CCN(C)CC5)cc4)nc3N(C)C2=O)C[C@@H]1CO [Compound 146] — recorded GI50 = 500 to 2500 nM

Entry C=CC(=O)N1CCC(N2Cc3cnc(Nc4ccc(S(=O)(=O)NCCO)cc4)nc3N(C)C2=O)c2ccccc21 (stereo not drawn) [Compound 084] — recorded GI50 = ≥ 2500 nM

Entry [2H]C1(N2Cc3cnc(Nc4cnn(CCO)c4)nc3N(C)C2=O)CCN(C(=O)C=C)c2c(OC)cccc21 (stereo not drawn) [Compound 129] — recorded GI50 = 500 to 2500 nM

Entry C=CC(=O)N1CCC(N2Cc3cnc(Nc4ccc(N(C)C)cc4)nc3N(C)C2=O)c2ccccc21 (stereo not drawn) [Compound 074] — recorded GI50 = < 100 nM

Entry C=CC(=O)N1CCC(N2Cc3cnc(Nc4ccc(N5CCN(C)CC5)cc4)nc3N(C)C2=O)c2cccc(OC)c21 (single isomer, unassigned) [Compound 123] — recorded GI50 = ≥ 2500 nM

Entry CN(C)C/C=C/C(=O)N1CCC(N2Cc3cnc(Nc4ccc(N5CCN(C)CC5)cc4)nc3N(C)C2=O)c2ccccc21 (stereo not drawn) [Compound 065] — recorded GI50 = 500 to 2500 nM

Entry C=CC(=O)N1CCC(N2Cc3cnc(Nc4cccc(N5CCN(C)CC5)c4)nc3N(C)C2=O)c2ccccc21 (stereo not drawn) [Compound 073] — recorded GI50 = < 100 nM

Entry C=CC(=O)N1CCC(N2Cc3cnc(Nc4ccc(N5CCN(C)CC5)cc4)nc3N(C)C2=O)c2cccc(C#N)c21 (stereo not drawn) [Compound 150] — recorded GI50 = 500 to 2500 nM

Entry C=CC(=O)N1CCC(N2Cc3cnc(Nc4ccc(N5CCN(C)CC5)cc4OC(F)(F)F)nc3N(C)C2=O)c2ccccc21 (stereo not drawn) [Compound 087] — recorded GI50 = < 100 nM

Entry C=C(CN1CC(N2Cc3cnc(Nc4ccc(N5CCN(C)CC5)cc4)nc3N(C)C2=O)C1)C(=O)O [Compound 137] — recorded GI50 = ≥ 2500 nM

Entry C=CC(=O)N1CCC(N2Cc3cnc(Nc4ccc(N5CCN(C)CC5)cc4)nc3N(CC(F)F)C2=O)c2cccc(OC)c21 (stereo not drawn) [Compound 134] — recorded GI50 = < 100 nM

Entry C=CC(=O)N1CCC(N2Cc3cnc(Nc4ccc(N5CCN(C)CC5)cc4)nc3N(C)C2=O)c2cccc(F)c21 (stereo not drawn) [Compound 099] — recorded GI50 = < 100 nM

Entry C=CC(=O)N1CC[C@H](N2Cc3cnc(Nc4ccc(N5CCN(C)CC5)cc4)nc3N(C)C2=O)c2cccc(C)c21 [Compound 140] — recorded GI50 = < 100 nM

Entry C=CC(=O)N1CCC(N2Cc3cnc(Nc4ccc(N5CCN(C)CC5)cc4)nc3N(C3CCCC3)C2=O)c2ccccc21 (stereo not drawn) [Compound 057] — recorded GI50 = < 100 nM

Entry C=C(CN1CCC(N2Cc3cnc(Nc4ccc(N5CCN(C)CC5)cc4)nc3N(C)C2=O)C1)C(=O)O (stereo not drawn) [Compound 136] — recorded GI50 = ≥ 2500 nM

Entry C=CC(=O)N1CCC(N2Cc3cnc(Nc4ccc(N5CCN(C)CC5)cc4)nc3N(C)C2=O)C2(CCC2)C1 (stereo not drawn) [Compound 094] — recorded GI50 = ≥ 2500 nM

Entry C=CC(=O)N1CCC(N2Cc3cnc(Nc4ccc(OCCN5CCCC5)cc4)nc3N(C)C2=O)c2ccccc21 (stereo not drawn) [Compound 068] — recorded GI50 = < 100 nM
